assayProtocol: in vitro
conditionDescription: human, liver microsomes
We begin with a simple list: items and their reported half-life at 5 µM.

Here's what some known entries look like.
| cpdSmiles | half-life at 5 µM |
| --- | --- |
| CS(=O)(=O)Nc1ccc2c(c1)S(=O)(=O)N=C(C1=C(O)CC3(CCCC3)N(Cc3ccc(F)cc3)C1=O)N2 | > 1 h |
| CC(C)C[C@@H]1CC(O)=C(C2=NS(=O)(=O)c3cc(NS(C)(=O)=O)ccc3N2)C(=O)N1Cc1ccc(F)cc1 | > 1 h |
| CC(C)CC[C@]1(C)CN(c2ccccc2)C(=O)C(C2=NS(=O)(=O)c3cc(NS(C)(=O)=O)ccc3N2)=C1O | > 0.0383 h |

half-life at 5 µM measured on "CC(C)CC[C@]1(C)CN(C2CCCC2)C(=O)C(C2=NS(=O)(=O)c3cc(NS(C)(=O)=O)ccc3N2)=C1O" = > 0.0433 h

half-life at 5 µM measured on "CC(C)CC[C@]1(C)CN(C2CCC2)C(=O)C(C2=NS(=O)(=O)c3cc(NS(C)(=O)=O)ccc3N2)=C1O" = 0.0367 h

half-life at 5 µM measured on "CC1(C)CN(Cc2ccc(F)cc2)C(=O)C(C2=NS(=O)(=O)c3cc(NS(C)(=O)=O)ccc3N2)=C1O" = > 1 h

half-life at 5 µM measured on "CC[C@@H]1CC(O)=C(C2=NS(=O)(=O)c3cc(NS(C)(=O)=O)ccc3N2)C(=O)N1Cc1ccc(F)cc1" = > 1 h

half-life at 5 µM measured on "CS(=O)(=O)Nc1ccc2c(c1)S(=O)(=O)N=C(C1=C(O)C[C@@H](c3ccc(F)cc3)N(Cc3ccc(F)cc3)C1=O)N2" = > 1 h
